Source: PubChem BioAssay AID1211

The reader will find reported inhibition of ligand binding values listed item by item below.
Target: Estrogen receptor (Homo sapiens) (UniProt P03372)
Sequence (P03372 whole entry, looked up): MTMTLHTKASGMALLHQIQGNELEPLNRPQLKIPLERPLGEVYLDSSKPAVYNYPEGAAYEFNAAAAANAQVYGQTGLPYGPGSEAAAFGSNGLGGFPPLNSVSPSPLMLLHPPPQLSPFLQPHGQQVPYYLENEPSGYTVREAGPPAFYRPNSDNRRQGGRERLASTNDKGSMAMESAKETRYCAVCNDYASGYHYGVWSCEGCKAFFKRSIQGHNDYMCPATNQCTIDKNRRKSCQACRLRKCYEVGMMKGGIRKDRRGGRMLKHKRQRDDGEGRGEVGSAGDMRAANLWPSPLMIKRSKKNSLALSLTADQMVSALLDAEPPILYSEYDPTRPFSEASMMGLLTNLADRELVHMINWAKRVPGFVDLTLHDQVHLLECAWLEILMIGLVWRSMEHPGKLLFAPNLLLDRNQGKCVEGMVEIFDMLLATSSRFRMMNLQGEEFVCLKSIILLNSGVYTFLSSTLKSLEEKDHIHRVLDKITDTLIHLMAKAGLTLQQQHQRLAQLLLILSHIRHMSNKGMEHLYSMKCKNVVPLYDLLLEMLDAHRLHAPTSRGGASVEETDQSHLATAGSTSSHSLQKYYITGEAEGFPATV
Assay: ERalpha ligand binders by competition, primary screen, cell-based, Cos7 ERalpha-GFP, flow cytometry (AID 1211);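 also: 0% = DMSO vehicle wells and 100% = no E2-Alexa633 signal left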
Conditions: fluorescent ligand competition, at 10 µM, stronger effect = higher value

>  <moleculeSmiles>
CCCc1nnc2n1N=C(c1ccc(-c3cc(Cl)ccc3Cl)o1)CS2

>  <unitSpec>
%

>  <inhibition of ligand binding>
47

$$$$
>  <moleculeSmiles>
COC(=O)c1ccc(OCc2c(C)noc2C)cc1

>  <unitSpec>
%

>  <inhibition of ligand binding>
22

$$$$
>  <moleculeSmiles>
O=C(c1cc2ncc(Br)cn2n1)N1CCN(C(=O)c2ccco2)CC1

>  <unitSpec>
%

>  <inhibition of ligand binding>
2

$$$$
>  <moleculeSmiles>
CCCCCCc1cc2c3c(c(=O)oc2cc1OCC(=O)OC)CCC3

>  <unitSpec>
%

>  <inhibition of ligand binding>
0

$$$$
>  <moleculeSmiles>
CCc1nc2sc3ccccc3c(=O)c2c(=O)n1Cc1ccco1

>  <unitSpec>
%

>  <inhibition of ligand binding>
0

$$$$
>  <moleculeSmiles>
Oc1ccc(-c2cn3c(n2)SCC3)cc1O

>  <unitSpec>
%

>  <inhibition of ligand binding>
19

$$$$

====

Target: Estrogen receptor (Homo sapiens) (UniProt P03372)
Assay: ERalpha ligand binders by competition, primary screen, cell-based, Cos7 ERalpha-GFP, flow cytometry (AID 1211);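 also: 0% = DMSO vehicle wells and 100% = no E2-Alexa633 signal left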
Conditions: fluorescent ligand competition, at 10 µM, stronger effect = higher value
Record T whenever inhibition of ligand binding is at 40% or higher; record F when lower.

>  <compound>
O=C1CC(c2ccc3c(c2)OCO3)c2ccc3ccccc3c2N1 (stereo not drawn)

>  <discreteLabel>
F

$$$$
>  <compound>
COc1cc(-c2nc3ccc4ccccc4c3c3c2CCC3)ccc1O

>  <discreteLabel>
T

$$$$
>  <compound>
CCOC(=O)c1c(NC(=O)CSc2nnc(-c3ccccc3)o2)sc(C(C)=O)c1C

>  <discreteLabel>
F

$$$$
>  <compound>
Cc1ccc(-n2nnnc2SCC(=O)Nc2cccc(NC(=O)c3ccco3)c2)cc1C

>  <discreteLabel>
T

$$$$
>  <compound>
CCc1cc2c3c(c(=O)oc2cc1OCC(=O)O)CCCC3

>  <discreteLabel>
F

$$$$
>  <compound>
CN=c1scc(C)n1/N=C/c1ccc(O)cc1O

>  <discreteLabel>
F

$$$$
>  <compound>
COc1ccc(-n2cc3c(c(C#N)c2=N)CC(C)(C)CC3=O)cc1

>  <discreteLabel>
F

$$$$
>  <compound>
CN(/N=C/c1cccnc1)c1cnn(-c2ccc(F)c(Cl)c2)c(=O)c1Cl

>  <discreteLabel>
F

$$$$
>  <compound>
C/C(N)=C(/C#N)C(=O)CSc1nnc(Nc2ccccc2C)s1

>  <discreteLabel>
T

$$$$
>  <compound>
COc1ccc(/C=N/NC(=O)c2nc(-c3ccccc3)cc(-c3ccccc3)n2)cc1O

>  <discreteLabel>
T

$$$$
>  <compound>
O=C(Nc1cccc(-c2cn3cccnc3n2)c1)c1ccc2c(c1)OCO2

>  <discreteLabel>
F

$$$$
>  <compound>
COc1cc(C=C(c2nc3ccccc3s2)c2nc3ccccc3s2)ccc1O

>  <discreteLabel>
F

$$$$
>  <compound>
O=C1CC(=O)N2N=C(c3ccc([N+](=O)[O-])cc3)SC2=N1

>  <discreteLabel>
F

$$$$
>  <compound>
O=c1oc2ccccc2cc1-c1ccc(O)cc1

>  <discreteLabel>
T

$$$$
>  <compound>
Cc1ccc(-n2c(SCC(=O)NNC(=S)Nc3ccccc3)nc3ccccc3c2=O)cc1

>  <discreteLabel>
F

$$$$
>  <compound>
C=C(C)CNC(=S)NNC(=O)CCn1c2cc(Cl)ccc2c2ccc(Cl)cc21

>  <discreteLabel>
T

$$$$
>  <compound>
CC(=O)Nc1ccc2[nH]c(C)cc(=O)c2c1

>  <discreteLabel>
F

$$$$
>  <compound>
O=c1oc2c(CN3CCCC3)c(O)ccc2c2c1CCC2

>  <discreteLabel>
F

$$$$
>  <compound>
COc1ccc(NC(=O)CN(c2ccccc2)S(=O)(=O)N(C)C)cc1OC

>  <discreteLabel>
F

$$$$
>  <compound>
O=C(NCCN1CCOCC1)c1cnn2c(-c3ccccc3)cc(-c3ccccc3)nc12

>  <discreteLabel>
F

$$$$
>  <compound>
Nc1ccc(N2CCN(C(=O)c3ccco3)CC2)cc1

>  <discreteLabel>
F

$$$$
>  <compound>
COc1ccc(OC)c(NC(=O)CSc2nc3ccccc3c3nc4ccccc4n23)c1

>  <discreteLabel>
F

$$$$

====

In this section, each of the compounds is paired with its reported inhibition of ligand binding.
Target: Estrogen receptor (Homo sapiens) (UniProt P03372)
Test: ERalpha ligand binders by competition, primary screen, cell-based, Cos7 ERalpha-GFP, flow cytometry (AID 1211);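 also: 0% = DMSO vehicle wells and 100% = no E2-Alexa633 signal left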
Settings: fluorescent ligand competition, binding inhibition, at 0.1 µM, stronger effect = higher value
measure: inhibition of ligand binding (%)

>  <compound>
COc1ccc(C(Nc2ccccn2)c2oc(CO)cc(=O)c2O)cc1 (stereo unspecified)

>  <unitSpec>
%

>  <reading>
22

$$$$
>  <compound>
Cc1nnc(SCC(=O)NC(=O)NCc2ccco2)n1Cc1ccccc1

>  <unitSpec>
%

>  <reading>
12

$$$$
>  <compound>
Cc1nnc(NC(=O)CSc2nc3c(c(=O)n2CCc2ccccc2)SC(C)C3)s1 (stereo unspecified)

>  <unitSpec>
%

>  <reading>
61

$$$$
>  <compound>
O=c1[nH]c(N/N=C/c2ccc(O)cc2)nc2ccccc12

>  <unitSpec>
%

>  <reading>
37

$$$$
>  <compound>
COc1ccc(N=Cc2sc(O)c3ccccc23)cc1

>  <unitSpec>
%

>  <reading>
36

$$$$
>  <compound>
COc1cc(C(C#N)N2N=C(c3ccccc3)CC2c2ccccc2)ccc1O (stereo unspecified)

>  <unitSpec>
%

>  <reading>
3

$$$$

====

In this section we review reported inhibition of ligand binding values for a set of molecules.
Target: Estrogen receptor (Homo sapiens) (UniProt P03372)
Assay: ERalpha ligand binders by competition, primary screen, cell-based, Cos7 ERalpha-GFP, flow cytometry (AID 1211);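 also: 0% = DMSO vehicle wells and 100% = no E2-Alexa633 signal left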
Conditions: fluorescent ligand competition, binding inhibition, at 0.1 µM, stronger effect = higher value
measure: inhibition of ligand binding (%)

>  <molecule>
COc1ccc(OC)c(C(=O)CSc2nnc(-c3ccc(OC)c(OC)c3)o2)c1

>  <targetUnderTest>
Estrogen receptor (Homo sapiens) (UniProt P03372)

>  <measure>
inhibition of ligand binding

>  <reading>
58

$$$$
>  <molecule>
Cc1ccc(NC(=O)CN2C(=O)S/C(=C/c3ccc(-c4cc(C(=O)O)ccc4C)o3)C2=O)cc1C

>  <targetUnderTest>
Estrogen receptor (Homo sapiens) (UniProt P03372)

>  <measure>
inhibition of ligand binding

>  <reading>
39

$$$$
>  <molecule>
CCn1c(SCC(=O)Nc2ccc3c(c2)oc2ccccc23)nnc1-c1ccc(N)cc1

>  <targetUnderTest>
Estrogen receptor (Homo sapiens) (UniProt P03372)

>  <measure>
inhibition of ligand binding

>  <reading>
10

$$$$
>  <molecule>
Cc1ccc(Cn2c(NC(=O)c3ccco3)nc3ccccc32)cc1

>  <targetUnderTest>
Estrogen receptor (Homo sapiens) (UniProt P03372)

>  <measure>
inhibition of ligand binding

>  <reading>
11

$$$$
>  <molecule>
O=C(O)c1ccc(Cl)c2c1C1C=CCC1C(c1ccccn1)N2 (stereo not given)

>  <targetUnderTest>
Estrogen receptor (Homo sapiens) (UniProt P03372)

>  <measure>
inhibition of ligand binding

>  <reading>
10

$$$$

====

Molecular target: Estrogen receptor (Homo sapiens)
Experiment: ERalpha ligand binders by competition, primary screen, cell-based, Cos7 ERalpha-GFP, flow cytometry (AID 1211);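 also: 0% = DMSO vehicle wells and 100% = no E2-Alexa633 signal left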
Conditions: fluorescent ligand competition, binding inhibition, at 0.1 µM, stronger effect = higher value
Classification field: enter rule met for inhibition of ligand binding values not below 20%, rule not met for values below it.

>  <moleculeSmiles>
CCOC(=O)Cc1cc(-c2ccc(O)cc2)nc2ccc3ccccc3c12

>  <discreteLabel>
rule not met

$$$$
>  <moleculeSmiles>
CCOC(=O)c1c(NC(=O)CSc2nnc(-c3ccccc3)o2)sc(C(C)=O)c1C

>  <discreteLabel>
rule met

$$$$
>  <moleculeSmiles>
CCOc1cc(N2CCOCC2)c(OCC)cc1NC(=O)c1cc(-c2ccco2)nc2ccccc12

>  <discreteLabel>
rule not met

$$$$
>  <moleculeSmiles>
CCOc1[nH]c(/N=C/c2ccco2)c(C#N)c1C#N

>  <discreteLabel>
rule not met

$$$$
>  <moleculeSmiles>
CCCc1cc(-n2ccnc2)n2c(nc3ccccc32)c1C#N

>  <discreteLabel>
rule met

$$$$
>  <moleculeSmiles>
COc1ccc(/C=N/NC(=O)c2nc(-c3ccccc3)cc(-c3ccccc3)n2)cc1O

>  <discreteLabel>
rule met

$$$$
>  <moleculeSmiles>
Cc1cc(C2(c3ccc(O)c(C)c3)OC(=O)c3ccccc32)ccc1O

>  <discreteLabel>
rule not met

$$$$
>  <moleculeSmiles>
COc1ccc2c(c1)c(=O)oc1cc(OCC(=O)NC3CCCCC3)ccc12

>  <discreteLabel>
rule met

$$$$
>  <moleculeSmiles>
O=C(COC(=O)c1cccc(S(=O)(=O)N2CCc3ccccc3C2)c1)NCc1ccco1

>  <discreteLabel>
rule not met

$$$$
>  <moleculeSmiles>
O=C(NCc1ccco1)c1cc2c(s1)CSC2

>  <discreteLabel>
rule met

$$$$
